System name: Cytochrome P450 2C19 (Homo sapiens)
Method notes: blockers of cytochrome P450 2C19 activity – biochemical, luminescence, ADME assay, primary screen (AID 778);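 note: plate controls were negative control wells for no effect and 2.5 mM tranylcypromine positive control for full effect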
Condition label: CYP2C19 Supersomes, luciferin-H EGE luminescence, 30 min; at 5 µM; stronger effect = higher value
Among all 96,000 compounds or so, about 20,000 (21%) were called active. These entries were drawn from the full list.

| Compound | Unit tag | inhibition |
| --- | --- | --- |
| O=C(O)c1ccc(NS(=O)(=O)c2cccc3nsnc23)cc1 | % | 2 |
| O=S1(=O)CCN2C(=N1)SC1=C2CCN(Cc2ccccc2)C1 | % | 48.1 |
| Oc1ccc(-c2onc3ccc(Cl)cc23)cc1 | % | 19 |
| C/C(N)=C(\C#N)C(=O)NCCc1ccccn1 | % | -6.3 |
| CCCCc1nc2c(=O)[nH]c3ccccc3c2o1 | % | -9.6 |
| CCCCCOC(=O)c1ccc(N2C(=O)C3C4C=CC(C4)C3C2=O)cc1 (configuration not stated) | % | -13.5 |
| O=S(=O)(/C=C/c1ccccc1)NCCc1ccccn1 | % | 53.8 |
| Brc1ccc(OCCn2ccnc2)cc1 | % | 91.7 |
| COc1ccccc1N(C(=O)Cn1nnc2ccccc21)C(C(=O)NCc1ccco1)c1ccc(C)o1 (configuration not stated) | % | 68 |
| CC(Sc1sc(=S)sc1SC(C)C(=O)O)C(=O)O (configuration not stated) | % | -1.4 |
| NS(=O)(=O)c1ccc(NS(=O)(=O)/C=C/c2ccccc2)cc1 | % | 38.8 |
| COC(=O)CNC(c1ccccc1Cl)c1cc(Br)ccc1NC(=O)CCN1CCOCC1 (configuration not stated) | % | -3.3 |

----------
System name: Cytochrome P450 2C19 (Homo sapiens)
Method notes: blockers of cytochrome P450 2C19 activity – biochemical, luminescence, ADME assay, primary screen (AID 778);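 note: plate controls were negative control wells for no effect and 2.5 mM tranylcypromine positive control for full effect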
Condition label: CYP2C19 Supersomes, luciferin-H EGE luminescence, 30 min; at 5 µM; stronger effect = higher value
Hit rate of the full screen: of about 96,000 compounds, about 20,000 (21%) were called active. Only a sample is shown.
Entries and their inhibition values follow.

| Compound | inhibition |
| --- | --- |
| CCC(c1nnnn1Cc1ccco1)N(Cc1cc2cc(OC)ccc2[nH]c1=O)C1CCCCC1 (stereo not drawn) | 53.6% (active) |
| COc1ccccc1-c1nnc(SCC(=O)N2CC(C)CC(C)C2)o1 (stereo not drawn) | 49.2% (inactive) |
| COC(=O)[C@@H](NC(=O)Nc1cc(Cl)ccc1C)C(C)C | 32.6% (inactive) |
| CCC(C)n1[nH]c(=O)c2c(C)cc(C)nc21 (stereo not drawn) | 10.9% (inactive) |
| CS(=O)(=O)c1ccc2nc(NC(=O)CN3CCCCCC3)sc2c1 | -6% (inactive) |
| Cn1c(=O)cc(SCC(=O)N2CCN(C(=O)c3ccco3)CC2)c2ccccc21 | -17% (inactive) |
| CCN(CC)S(=O)(=O)c1cccc(C(=O)Nc2ccccc2)c1 | 53.4% (active) |
| CCC(=O)N(Cc1cc2cc(OC)ccc2[nH]c1=O)c1ccccc1C | 21.8% (inactive) |
| Cn1nnnc1SCC(=O)N1CCN(Cc2ccccc2)CC1 | 38.9% (inactive) |
| COC(=O)Nc1ccc(S(=O)(=O)N2CCN(CCN3C(=O)C4C5C=CC(C5)C4C3=O)CC2)cc1 (stereo not drawn) | 5.6% (inactive) |
| CC(=O)Oc1cc2c(C(=O)NCCN3CCOCC3)c(C)oc2c2ccccc12 | 34.2% (inactive) |
| Cc1noc(C)c1C(=O)Nc1ccccn1 | 14.4% (inactive) |
| COC(=O)c1cnn2c(C(F)(F)F)cc(-c3ccco3)nc12 | -9% (inactive) |
| O=C(Nc1nnc(SCc2c(Cl)cccc2Cl)s1)C1CCCO1 (stereo not drawn) | 9.6% (inactive) |
| COc1ccc2[nH]c3c(=O)n(Cc4ccco4)cnc3c2c1 | 21.8% (inactive) |
| O=C1CCN(C(=O)Nc2ccccc2)N1 | -3.2% (inactive) |
| COc1cccc(N2CCN(C(=O)Nc3ccc4c(c3)NC(=O)CO4)CC2)c1 | -6.5% (inactive) |
| CCOC(=O)Nc1ccc(S(=O)(=O)N(C)C(C)C)cc1 | 19.6% (inactive) |
| CCN(c1ccccc1)S(=O)(=O)c1cccc(C(=O)O)c1 | 3.1% (inactive) |
| CNC(=O)Nc1cc(C(C)(C)C)no1 | 32.3% (inactive) |
| COC(=O)Nc1ccc(S(=O)(=O)N(C)CC(F)(F)C(F)F)cc1 | 58.8% (active) |
| O=S(=O)(/N=C(/Nc1ccccn1)c1ccccc1)c1ccc(Cl)cc1 | 40.3% (inactive) |
| CC1Cc2ccccc2N1C(=O)CSc1nnc(-c2ccc(S(=O)(=O)N3CCCCC3)cc2)o1 (stereo not drawn) | 12.5% (inactive) |

----------
System name: Cytochrome P450 2C19 (Homo sapiens)
Method notes: blockers of cytochrome P450 2C19 activity – biochemical, luminescence, ADME assay, primary screen (AID 778);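 note: plate controls were negative control wells for no effect and 2.5 mM tranylcypromine positive control for full effect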
Condition label: CYP2C19 Supersomes, luciferin-H EGE luminescence, 30 min; at 5 µM
Out of some 96,000 compounds screened, about 20,000 (21%) were called active.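 The calls were made as follows: active = CYP2C19 inhibition above a set limit at 5 µM in the primary screen (cut at about 50% in these data); inactive = the rest.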 These entries were drawn from the full list.
Outcome codes: active, inactive

| Compound | System name | Class name |
| --- | --- | --- |
| Nc1nc(SCCOc2ccccc2)n[nH]1 | Cytochrome P450 2C19 (Homo sapiens) | inactive |
| O=S(=O)(c1ccccc1)N(CC(O)CN1CCCCC1)c1ccccc1 (configuration not stated) | Cytochrome P450 2C19 (Homo sapiens) | inactive |
| c1ccc2c(-c3nn4nnnc4c4ccccc34)cccc2c1 | Cytochrome P450 2C19 (Homo sapiens) | active |
| Brc1cnc(N2CCCC2)nc1N1CCCCC1 | Cytochrome P450 2C19 (Homo sapiens) | inactive |
| C=CCn1c(COc2cccc3cccnc23)nnc1SCC(=O)OC | Cytochrome P450 2C19 (Homo sapiens) | inactive |
| CC1Cc2ccccc2N1CC(=O)Nc1ccc2c(c1)OC(F)(F)O2 (configuration not stated) | Cytochrome P450 2C19 (Homo sapiens) | active |
| Cc1nn(CCOc2ccccc2)c(=O)n1-c1ccccc1F | Cytochrome P450 2C19 (Homo sapiens) | active |
| CCN1C(=O)c2cccc3c(N)ccc1c23 | Cytochrome P450 2C19 (Homo sapiens) | inactive |
| C=CC[n+]1c(-c2ccc(C)cc2)csc1NNC(=O)Nc1ccccc1 | Cytochrome P450 2C19 (Homo sapiens) | inactive |
| O=C(NCC(F)(F)F)Nc1nnc(C(F)(F)F)s1 | Cytochrome P450 2C19 (Homo sapiens) | inactive |
| COc1ccc2c3c(c(=O)oc2c1OCC(=O)C(C)(C)C)CCCC3 | Cytochrome P450 2C19 (Homo sapiens) | inactive |
| O=C(OCCO)c1cc(Cl)c(C(=O)OCCO)cc1Cl | Cytochrome P450 2C19 (Homo sapiens) | inactive |

----------
System name: Cytochrome P450 2C19 (Homo sapiens)
Method notes: blockers of cytochrome P450 2C19 activity – biochemical, luminescence, ADME assay, primary screen (AID 778);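 note: plate controls were negative control wells for no effect and 2.5 mM tranylcypromine positive control for full effect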
Condition label: CYP2C19 Supersomes, luciferin-H EGE luminescence, 30 min; at 5 µM
The campaign covered roughly 96,000 compounds. About 20,000 (21%) were called active.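 The calls were made as follows: active = CYP2C19 inhibition above a set limit at 5 µM in the primary screen (cut at about 50% in these data); inactive = the rest.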 Only a sample is shown.
Labels: active, inactive

| Compound | Class name |
| --- | --- |
| O=S(=O)(NC1CCCCC1)c1ccc(F)c2ccccc12 | inactive |
| CCOC(=O)c1c(-c2ccccc2)csc1NC(=S)NC(=O)c1ccccc1 | inactive |
| Cc1cc(S(=O)(=O)NC2CCCCC2)ccc1OCC(=O)NCc1cccnc1 | inactive |
| CCOC(=O)C1CCN(Cc2coc3ccc(Cl)cc3c2=O)CC1 | inactive |
| CCC(=O)Nc1ccc(C(=O)Nc2cc(C)on2)cc1 | inactive |
| CCCNS(=O)(=O)c1ccc(CCC(=O)NCc2cccnc2)cc1 | inactive |
| O=C(O)c1ccc(F)c(S(=O)(=O)Nc2ccccc2)c1 | inactive |
| Cc1ccc(NC(=S)NC(=O)c2ccc(-c3ccccc3)cc2)c(C)c1 | inactive |
| CCCS(=O)(=O)Nc1c(C(=O)O)[nH]c2ccccc12 | inactive |
| O=C1OC(NC(=O)c2ccccc2)C(N2CCOCC2)=C1Cl (centres undefined) | active |
| CCCCN=C(N)/C(C(=O)OCC)=C(\O)c1ccc(OC)cc1 | active |
| CSc1ccc(S(=O)(=O)NC2CCCCC2)cc1 | active |
| Cc1c(NC(=O)C(C)OC(=O)c2cc3c4ccccc4n(C)c3s2)c(=O)n(-c2ccccc2)n1C (centres undefined) | inactive |
| CCOc1cc(/C=C2/N=C(c3ccc(C(C)(C)C)cc3)OC2=O)cc(Cl)c1OS(C)(=O)=O | inactive |
| Cc1c(C#N)c2ncn(CC#N)c(=O)c2n1-c1ccccc1 | inactive |
| Cc1cccc(CCNS(=O)(=O)c2ccc(S(=O)(=O)NC3CCCC3)cc2)c1 | active |
| Cc1ccc(-n2nc3cc(Cl)c(NC(=O)c4ccco4)cc3n2)cc1 | inactive |
| COC(=O)Nc1c(C)n(C)n(-c2ccccc2)c1=O | inactive |
| CCCOC(=O)Nc1sc2c(c1C(=O)OCC)CCC2 | inactive |
| Cc1c(NC(=O)c2coc(=O)c(Br)c2)c(=O)n(-c2ccccc2)n1C | inactive |
| O=C(O)CSCc1nc2ccccc2s1 | inactive |
| O=C(CSc1nnc(Cn2cnc3ccccc32)o1)c1ccccc1 | inactive |
| O=C(O)CCCCc1nc2ccccc2s1 | inactive |
| COC(=O)c1[nH]c2ccccc2c1NS(=O)(=O)c1ccc(OC)cc1OC | active |

Origin of values: PubChem BioAssay AID778
